biological target: T1, human Claudin 18.2 (hCLDN18.2) (human, UniProt P56856-2 1-261); experiment: FACS, HEK293-hCLDN18.2 cells
T1 construct: whole, on cells; also called CLDN18A2; claudin 18 splice variant 2
measured_attribute: EC50 (nM)
The answer is to be given in nM; state only the numeric part.

Given the entry ch-48H1 (antibody, V domains shown, also called chimeric antibody of clone 48H1) VH: QVQLQQPGAELVKPGTSVKLSCKASGYIFTNYWTHWMKQRPGQGLEWIGMIHPNSGSSNYNEKFKSKATLTVDRSSSTVYMQLRRLTSEDSAVYYCTRIHYGNSMDYWGQGTSVTVSS VL: DIVMTQSPSSLTVTAGEKVTMSCKSSQSLFNSGNQKNYLTWYQQKPGQPPKLLIYWASTWESGVPDRFTGSGSGTDFTLTISSVQAEDLAVYYCQNAYSYPFTFGSGTKLEIK , report its measured EC50.
2.92

# input binder: ch-39C8 (antibody, V domains shown, also called chimeric antibody of clone 39C8) VH: QVQLQQSGAGLVKPGASVKISCKASGYAFSSYWMIWVKQRPGKGLEWIGQIYPGDGDTNYNGKFKGKATLTADKSSSTAFMQLSSLTSEDSAVYFCTRIYYGNAFAYWGQGTLVTVSA VL: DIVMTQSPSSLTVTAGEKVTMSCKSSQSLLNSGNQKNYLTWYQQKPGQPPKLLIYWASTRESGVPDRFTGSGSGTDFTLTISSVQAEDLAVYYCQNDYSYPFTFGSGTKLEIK ; wanted: its EC50
2.7

Look up EC50: ch-126A11 (antibody, V domains shown, also called chimeric antibody of clone 126A11) VH: QVQLKESGPGLVAPSQSLSITCTVSEFSLTTYGVSWVRQPPGKGLEWLGVIWGDGSTNYHSALISRLSISKDTSKSQVFLKLNSLQTDDTATYYCAKPGLRNAMDYWGQGTSVTVSS VL: DIVMTQSPSSLSVSAGEKVTMSCKSSQSLLNSGNQKNYLAWYQQKPGQPPKLLIYGASTRESGVPDRFTGSGSGTDFTLTISSVQAEDLAVYYCQNDLIYPLTFGAGTKLELK
2.12
